pIC50: −log10 of the molar value.
Endpoint summary: pIC50, system: human DGAT1 (Homo sapiens), multiple sources combined.
measurement-type: pIC50

(I) O=C(NCc1ccccc1F)c1ccc(N2CCN(C(=O)Cc3c(Cl)cccc3Cl)CC2)cc1
(II) CCOC(=O)CCCC(=O)Nc1ccc(N2CCN(C(=O)Nc3c(Cl)cc(CN4CCCC4)cc3Cl)CC2)cc1
## Input Which shows the larger pIC50 value: I or II ? Kindly state the label of the option you pick.
## Output II
(II: 7.04, I: 6.79)

(a) CC(C)(C)OC(=O)N1CSCC1C(=O)Nc1ccc(C2CCN(C(=O)Nc3c(Cl)cccc3Cl)CC2)cc1 (stereo not shown)
(b) C[C@]1(C(=O)O)CC[C@H](OC2CCN(c3ccc(-c4nc5ccc(F)cc5[nH]4)cn3)CC2)CC1
(c) O=C(O)CC1CCc2cc(-c3ccc(NC(=O)Nc4ccc(F)c(C(F)(F)F)c4)cc3)ccc2C1 (stereo not shown)
## Input Order field: pIC50 | Direction: descending (largest first) // format: requested-order list of labels
## Output b, a, c

(A) O=C(CCN1CCCCC1)Nc1ccc(C2CCN(C(=O)Nc3c(Cl)cccc3Cl)CC2)cc1
(B) Cc1cc(CCC(=O)O)cc(C)c1-c1nc2ccc(-c3nnc(Nc4cccc(Cl)c4)o3)cc2[nH]1
## Input Which shows the larger pIC50 value: A or B ? Kindly state the label of the option you pick.
## Output B

(P) O=C(O)[C@H]1[C@@H]2C[C@@H](OC3CCN(c4ccc(-c5nc6cc(C(F)(F)F)ccc6[nH]5)cn4)CC3)C[C@@H]21
(Q) CC(C)N(NC(=O)c1ccccc1)C(=O)/C=C/c1cn(C(=O)C(C)(C)C)c2ccccc12
## Input Which shows the larger pIC50 value: P or Q ? Kindly state the label of the option you pick.
## Output P
(P: 8.40, Q: 5.03)

---

Endpoint summary: IC50, system: human DGAT1 (Homo sapiens, UniProt O75907), multiple sources combined.
Sequence (O75907 whole entry): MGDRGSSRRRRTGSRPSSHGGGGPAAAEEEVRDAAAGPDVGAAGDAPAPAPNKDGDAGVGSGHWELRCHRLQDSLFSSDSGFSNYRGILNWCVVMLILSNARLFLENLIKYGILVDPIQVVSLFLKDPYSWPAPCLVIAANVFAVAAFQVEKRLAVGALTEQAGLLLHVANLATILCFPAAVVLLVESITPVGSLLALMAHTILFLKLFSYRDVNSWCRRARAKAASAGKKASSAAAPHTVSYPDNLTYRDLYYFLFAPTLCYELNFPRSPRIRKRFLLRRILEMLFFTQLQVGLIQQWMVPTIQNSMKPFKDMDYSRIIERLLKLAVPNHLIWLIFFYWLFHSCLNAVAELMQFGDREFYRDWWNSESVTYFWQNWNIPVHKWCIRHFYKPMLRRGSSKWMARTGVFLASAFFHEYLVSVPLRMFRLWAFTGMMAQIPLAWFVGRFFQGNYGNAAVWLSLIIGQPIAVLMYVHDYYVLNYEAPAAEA

Example entries and their recorded answers appear below.
O=C(Nc1ccc(N2CCC(O)(c3ccccc3)CC2)nc1)c1oc(-c2ccccc2)nc1C(F)(F)F    101 to 500 nM
CCCc1c(C(=O)OCC)c(C(=O)OCC)c2c(-c3ccccc3)cc(N3CCOCC3)nn12    > 100 nM
O=C(Nc1ccc(N2CCCN(C(=O)[C@H](O)C3CCCCC3)CC2)nc1)c1oc(-c2ccccc2)nc1C(F)(F)F    11 to 100 nM

Please turn your attention to the following entry.
Record summary for `CC1(C)Oc2ncnc(N)c2N=C1c1ccc([C@H]2CC[C@H](Cc3cc(O)on3)CC2)cc1` : reported IC50 = 10 to 100 nM
